Data origin, for the record: PubChem BioAssay (NCI)

Test system: UACC-257 melanoma
assay remarks: NCI tumour cell line growth inhibition, 48 h
Below: a set of entries, each annotated with reported TGI.

Look over these answered cases.
CCSc1ncnc2c1ncn2C1OC(CO)C(O)C1O (stereo unspecified)
> 100 µM
Cc1[nH]c2ccccc2c1C(=O)/C=C/c1ccccc1O
> 100 µM

Any idea what its TGI is? The molecule is O=C1/C(=C/c2ccc(Cl)cc2)CCC1CCN1CCOCC1 (stereo unspecified) > 100 µM

Any idea what its TGI is? The molecule is O=C(c1ccccc1)c1cc2ccccc2o1 > 100 µM

Any idea what its TGI is? The molecule is COc1ccc(Nc2nnc(-c3cc(O)ccc3O)s2)cc1 > 50 µM

Any idea what its TGI is? The molecule is CC#CCOC(=O)c1ccccc1OC(C)=O > 100 µM
